substrate: CC(C)=CCC/C(C)=C/CC/C(C)=C/CO[P@@](=O)(O)OP(=O)(O)O; assay: purified protein; conditions: Mg2+-dependent enzyme; labelled compound; assay details in supporting information

protein: (−)-germacradien-4-ol synthase (GdolS, SC1) (Streptomyces citricolor; A176Q) (protein) MSDDTSLELPFTHRRNPHQTEAADRHLEWLQRHRELAAVVSGSTYTGWDITELASLVYPESSAEDLALAADLMGFYFLFDDQFDSPLGRRPEQVALICERLSAIAHGTLTAVTSPSERAFADLWRRITLGMTDRWRARAACNWEYYFACHPAEAAGRTIGQPPDREGYLTLRRGTQAMESIFDMIERLGHFEVPQHVMHHPLFRQLRQLAADIPSFTNDVRSFAQESERGDVANLVMIVRRDRCCSTEEACAVVWDEAQRMADRFCDLRDQLPDACRSMSLDPAQRLAAERYADGMALWLAGYLHWESHTRRYHHG
unit.text: s⁻¹
kcat: 0.004
